# Test system: NCI-H522
# assay-remarks: NCI tumour cell line growth inhibition, 48 h
The source made the active and inactive calls. No stated cut-off is given here; in the data, active = GI50 up to about 1.1 µM and inactive = higher.
readout-kind: GI50

Solved entries:
molecule	GI50
CCOC(=O)[C@H]1Nc2ccc([N+](=O)[O-])cc2C2c3ccccc3CC21 (stereo not given in full)	6.7 µM (inactive)
CCOC(=O)C1(C)CCC(C(=O)OC)C1=O (stereo not given)	17.1 µM (inactive)
CC(C)(C)OC(=O)N1C[C@H](CC(=O)OCc2ccccc2)C[C@H]1C(=O)OCC(Cl)(Cl)Cl	1.62 µM (inactive)
CCOC(=O)NC(=O)c1cn(CC(=O)NCC(=O)NCC(=O)NCCCN2CCN(CCCNC(=O)CNC(=O)CNC(=O)Cn3cc(C(=O)NC(=O)OCC)c(=O)[nH]c3=O)CC2)c(=O)[nH]c1=O	> 100 µM (inactive)

input: Report GI50 for COc1cc(O)c2c(O)c3c(=O)oc(C)cc3c(OC)c2c1 [PAEPALANTINE]
output: 35.4 µM (inactive)

* * *

# System: HOP-62
# assay-remarks: NCI tumour cell line growth inhibition, 48 h
Calls of active or inactive are those of the source. Cut-off read from the data, not from the text of the source: active = GI50 up to about 1.1 µM and inactive = higher.
readout-kind: GI50

compound	GI50
CC(=O)Nc1ccc2c3c(cc(O)c2c1)N(C(=O)CCCCC(=O)N1CC(CCl)c2c1cc(O)c1cc(NC(C)=O)ccc21)CC3CCl (stereo unspecified)	0.177 µM (active)

input: Report GI50 for N=C(N)/N=C(/C=C/c1ccccc1)CC1OC(=O)c2ccccc21 (stereo unspecified)
output: > 100 µM (inactive)

input: Report GI50 for O=C1CSC(c2cccs2)N1c1nc2cc3sc(N4C(=O)CSC4c4cccs4)nc3cc2s1 (stereo unspecified)
output: > 50 µM (inactive)

input: Report GI50 for CC1=C(SC#N)S(=O)(=O)N(c2ccccc2)C(C)=C1SC#N
output: > 10 µM (inactive)

input: Report GI50 for CCOP(=O)(OCC)/C(C#N)=C/c1ccc(-c2ccc(F)cc2F)o1
output: 19.2 µM (inactive)

input: Report GI50 for Cc1ccc(C(=O)/C=C2\Nc3cccnc3NC2=O)cc1
output: 33.6 µM (inactive)

* * *

# Test system: HOP-92
# assay-remarks: NCI tumour cell line growth inhibition, 48 h
Active and inactive are the calls of the source. Cut-off read from the data, not from the text of the source: active = GI50 up to about 1.1 µM and inactive = higher. *1 amine or outer side, *2 acyl side, *3 side chain or, on linkers, in order; H or OH if unused. Where a SMILES comes first, the peptide text is derived from it. Bridges are numbered along the chain shown (N, C = ends). [ ]: non-standard residue; d: D form. The star is where a group is joined. X36 = O=C(C(CCCCNO[*:3])N[*:1])[*:2]; Fmoc = O=C(OCC1c2ccccc2-c2ccccc21)*
Just give me one of these, please: YES (active), NO (inactive)

compound	class-assignment
COC(=O)C1Cc2c([nH]c3ccccc23)-c2[nH]c3ccccc3c2CC(NC(C)=O)C(=O)NCC(=O)N1 (centres undefined)	NO
NCCOCCOCC(=O)O	NO
CCCCCCCCCCCCCCCc1ccc(OCC(O)CO)cc1 (centres undefined)	NO
Cc1cc(=O)oc2cc3c(cc12)Oc1ccccc1O3	NO
COC(=O)C(Cc1ccccc1)NC(=O)CNC(=O)CSc1nnc(COc2ccc(Cl)cc2)n1-c1ccccc1 (centres undefined)	NO
NC(Cc1ccccc1CP(=O)(O)O)C(=O)O (centres undefined)	NO
CC(=O)Nc1ccc2c3c(cc(O)c2c1)N(C(=O)CCCCC(=O)N1CC(CCl)c2c1cc(O)c1cc(NC(C)=O)ccc21)CC3CCl (centres undefined)	YES
CCOC(=O)c1c(CN2CCNCC2)nc2ccccc2c1-c1ccccc1	NO
COc1cc(C=C2C(=O)NC(=S)NC2=O)cc(OC)c1OC	NO
NC(=O)CNC(=O)C1CCCN1C(=O)C1CCCCNOC(=O)CCC(NC(=O)OCC2c3ccccc3-c3ccccc32)C(=O)NC(Cc2c[nH]c3ccccc23)C(=O)N1 (centres undefined) (Fmoc-EW[X36]PG-NH2; ester 1-3; configuration not given here)	NO

Now for a further compound.
input: I would be grateful if you could indicate the recorded call for COC1CC(OC2CCC3(C)C(CCC45CCC(C6=CC(=O)OC6)C(C)(CCC43)C5=O)C2)OC(C)C1O (centres undefined) .
output: NO
